biological target: UniProtKB Q9NYK1; experiment: TLR7 inhibition reporter assay (HEK-Blue cells, secreted embryonic alkaline phosphatase reporter); settings: HEK-Blue cells overexpressing human TLR7, stimulated with gardiquimod 7.5 μM; read-out: TLR 7 IC50
pIC50: −log10 of the molar value.
# reported pIC50; entries follow

Field: example entries. Status: answers known.
Cn1c(-c2ccc(S(C)(=O)=O)cc2)nc2cc(C3CCN(C4CCN(C5CC5)CC4)CC3)cc(F)c21 [Example 202]: < 4.30
CC(C)N1C2CCC1CC(N1CCC(c3cc(F)c4c(c3)nc(-c3ccc(S(C)(=O)=O)cc3)n4C)CC1)C2 (single isomer, unassigned) [Example 93]: < 4.30

Consider now this further molecule.
Enquiry: Entry COc1ccc(-c2nc3c(C)cc(C4CCN(C5CC6CCC(C5)N6C5CCOCC5)CC4)cc3n2C)cc1OC (single isomer, unassigned) [Example 167] : reported pIC50 = ?
Return: < 4.60

----------
A collection of compounds and their measured pIC50
biological target: human TLR9 (Homo sapiens); construct: host or cells: HEK-Blue cells (HEK293-derived reporter line); assay: TLR9 inhibition reporter assay (HEK-Blue cells, secreted embryonic alkaline phosphatase reporter); type: cell-based; settings: HEK-Blue cells overexpressing human TLR9, stimulated with ODN2006 5 nM, 22 hour incubation, reporter readout
Sequence (Q9NR96 26-1032): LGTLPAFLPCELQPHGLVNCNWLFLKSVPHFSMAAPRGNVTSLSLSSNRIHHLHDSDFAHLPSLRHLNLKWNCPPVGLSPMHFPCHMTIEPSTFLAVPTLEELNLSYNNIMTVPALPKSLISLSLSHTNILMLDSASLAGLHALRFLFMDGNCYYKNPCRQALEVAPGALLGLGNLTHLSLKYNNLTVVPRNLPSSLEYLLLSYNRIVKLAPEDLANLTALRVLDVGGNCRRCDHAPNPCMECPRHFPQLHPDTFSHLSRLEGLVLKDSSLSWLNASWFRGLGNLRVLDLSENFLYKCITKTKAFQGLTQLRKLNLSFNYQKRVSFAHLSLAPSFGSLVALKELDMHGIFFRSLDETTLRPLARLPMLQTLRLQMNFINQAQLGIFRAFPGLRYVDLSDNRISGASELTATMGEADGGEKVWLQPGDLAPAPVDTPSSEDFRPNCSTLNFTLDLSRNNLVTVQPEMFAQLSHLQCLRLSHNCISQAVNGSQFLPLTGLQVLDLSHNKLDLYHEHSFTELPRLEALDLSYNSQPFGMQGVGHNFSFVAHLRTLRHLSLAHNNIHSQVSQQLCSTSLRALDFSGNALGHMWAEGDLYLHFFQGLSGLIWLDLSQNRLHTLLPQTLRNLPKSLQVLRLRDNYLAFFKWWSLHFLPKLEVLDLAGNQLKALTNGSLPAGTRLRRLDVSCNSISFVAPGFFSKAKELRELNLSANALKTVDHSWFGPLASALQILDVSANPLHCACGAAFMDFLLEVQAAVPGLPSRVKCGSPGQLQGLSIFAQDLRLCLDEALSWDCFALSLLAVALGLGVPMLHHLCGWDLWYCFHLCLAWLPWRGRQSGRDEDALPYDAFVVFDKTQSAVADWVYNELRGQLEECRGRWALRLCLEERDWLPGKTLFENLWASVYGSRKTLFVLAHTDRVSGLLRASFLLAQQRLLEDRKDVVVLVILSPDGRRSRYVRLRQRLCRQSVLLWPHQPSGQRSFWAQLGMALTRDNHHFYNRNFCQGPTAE
Please treat pIC50 as minus the base-10 logarithm of the molar concentration.

Observe how each entry below is paired with its result.
COc1ccc(-c2nc3c(C)cc(C4CCN(C5CC6CCC(C5)N6CC(C)C)CC4)cc3n2C)cc1OC (single isomer, unassigned) [Example 17]: 7.60
COc1ccc(-c2nc3ccc(C4CCN(C5CCN(C(C)C)CC5)CC4)cc3n2C(C)C)cc1OC: 6.77
Cc1ccc(CN2CCC(c3cc(C)c4nc(-c5ccc(S(C)(=O)=O)cc5)n(C)c4c3)CC2)cn1: 5.68
COc1ccc(-c2nc3ccc(C4CCN(C5CCN(C(C)C)CC5)CC4)cc3n2C)cc1OC: 7.25
CCOP(=O)(OCC)c1ccc(-c2nc3c(C)cc(C4CCN(C5CCN(C(C)C)CC5)CC4)cc3n2C)cc1: 6.85
COc1ccc(-c2nc3c(C)cc(C4CCN(C5CC6(C5)CN(CC(C)C)C6)CC4)cc3n2C)cc1OC [Example 47, tris(2,2,2-trifluoroacetate)]: 7.89

Enquiry: Can you look up pIC50 on human TLR9 (Homo sapiens) for COc1ccc(-c2nc3ccc(C4CCN(C5CCN(CC(C)C)CC5)CC4)cc3n2CC(F)F)cc1OC ?
Return: 6.68

Enquiry: What value of pIC50 on human TLR9 (Homo sapiens) does Cc1cc(C2CCN(C3CC4CCC(C3)N4CC(C)C)CC2)cc2[nH]c(-c3ccc(S(C)(=O)=O)cc3)nc12 (centres unmarked) have?
Return: 7.72

----------
Listed here: items and their measured IC50.
molecular target: UniProt Q9NR97; assay: TLR8 inhibition reporter assay (HEK-Blue cells, secreted embryonic alkaline phosphatase reporter); conditions: HEK-Blue cells overexpressing human TLR8, stimulated with R848 15.9 μM; read-out: TLR 8 IC50
Sequence (Q9NR97 27-1041): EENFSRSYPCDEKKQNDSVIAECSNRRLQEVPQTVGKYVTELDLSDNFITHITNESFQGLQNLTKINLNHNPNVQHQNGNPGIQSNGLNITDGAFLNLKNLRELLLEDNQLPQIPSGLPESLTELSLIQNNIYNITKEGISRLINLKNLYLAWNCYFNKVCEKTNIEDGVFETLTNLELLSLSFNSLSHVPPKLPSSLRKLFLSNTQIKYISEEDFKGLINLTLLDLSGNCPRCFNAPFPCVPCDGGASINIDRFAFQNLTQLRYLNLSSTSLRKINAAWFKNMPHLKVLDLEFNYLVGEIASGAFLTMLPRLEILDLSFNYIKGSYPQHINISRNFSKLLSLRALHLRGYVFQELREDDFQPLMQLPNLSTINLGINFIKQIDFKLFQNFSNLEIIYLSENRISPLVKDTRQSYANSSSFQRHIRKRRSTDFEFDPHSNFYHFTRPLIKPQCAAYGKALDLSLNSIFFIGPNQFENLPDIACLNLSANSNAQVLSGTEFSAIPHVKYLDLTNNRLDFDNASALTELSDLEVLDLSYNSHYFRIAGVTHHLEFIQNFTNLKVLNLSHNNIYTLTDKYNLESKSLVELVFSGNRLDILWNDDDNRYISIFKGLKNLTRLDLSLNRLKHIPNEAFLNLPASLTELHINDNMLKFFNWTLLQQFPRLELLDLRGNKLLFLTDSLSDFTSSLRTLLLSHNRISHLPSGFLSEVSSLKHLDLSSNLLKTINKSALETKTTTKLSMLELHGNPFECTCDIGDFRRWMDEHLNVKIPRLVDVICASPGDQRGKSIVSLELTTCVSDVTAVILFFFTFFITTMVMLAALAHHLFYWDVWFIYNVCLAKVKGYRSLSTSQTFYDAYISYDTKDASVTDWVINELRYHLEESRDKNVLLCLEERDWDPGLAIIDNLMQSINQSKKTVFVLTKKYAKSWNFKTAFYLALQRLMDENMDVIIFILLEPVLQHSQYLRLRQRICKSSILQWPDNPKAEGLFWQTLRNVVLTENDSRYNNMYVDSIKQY

Example entries and their recorded answers appear below.
CN(C)C1CCN(Cc2ccc(-c3ccc4nc(-c5ccccc5)n(C)c4c3)cc2)CC1: > 50 µM
CC(C)CN1CCCC(N2CCC(c3ccc4nc(-c5ccc(S(C)(=O)=O)cc5)n(C)c4c3F)CC2)CC1 (stereo not drawn) [Example 311]: > 50 µM
CN(C)C1CCN(Cc2ccc(-c3ccc4nc(-c5ccc(S(C)(=O)=O)cc5)n(C)c4c3)cc2)CC1: 0.4 µM
COc1ccc(-c2nc3c(C)cc(C4CCN(C5CCNCC5)CC4)cc3[nH]2)cc1OC [Example 13, tris(2,2,2-trifluoroacetate)]: > 50 µM
COCCN1CCC(N2CCC(c3ccc4c(nc(-c5ccc(S(C)(=O)=O)cc5)n4C)c3F)CC2)CC1: > 50 µM
CC(C)CN1CCC(N2CCC(c3ccc4c(nc(-c5ccc(S(C)(=O)=O)cc5)n4C)c3F)CC2)CC1: > 50 µM
CC(C)CN1C2CCC1CC(N1CCC(c3cc(F)c4c(c3)nc(-c3ccc(S(C)(=O)=O)cc3)n4C)CC1)C2 (stereo not drawn) [Example 210]: > 50 µM
CN(C)C1CCN(Cc2ccc(-c3ccc4nc(-c5ccc(C#N)cc5)n(C)c4c3)cc2)CC1: 2.3 µM

Enquiry: Field: IC50 (UniProt Q9NR97). Entry: Cn1c(-c2ccc(S(C)(=O)=O)cc2)nc2c(F)cc(C3CCN(C4CCCN(CC5CC5)CC4)CC3)cc21 (single isomer, unassigned) [Example 298]
Return: > 50 µM

Enquiry: Kindly state the measured IC50 obtained for CC(C)N1C2CCC1CC(N1CCC(c3ccc4c(nc(-c5ccc(S(C)(=O)=O)cc5)n4C)c3F)CC1)C2 (single isomer, unassigned) [Example 89] with UniProt Q9NR97.
Return: > 50 µM

----------
biological target: human TLR9 (Homo sapiens); construct: host or cells: HEK-Blue cells (HEK293-derived reporter line); test: TLR9 inhibition reporter assay (HEK-Blue cells, secreted embryonic alkaline phosphatase reporter); format: cell-based
measure: pIC50
Reminder that pIC50 means the negative base-10 logarithm of the concentration expressed in mol/L.

Examples with their reported pIC50 follow.
Cc1cc(C2CCN(C3CCCN(CC(C)C)CC3)CC2)cc2c1nc(-c1ccc(S(C)(=O)=O)cc1)n2C (stereo not drawn) [Example 136]: 6.85
CS(=O)(=O)c1ccc(-c2nc3ccc(C4CCN(C5CCN(CC6COC6)CC5)CC4)c(F)c3[nH]2)cc1 [Example 183]: 6.96
Cn1c(-c2ccc(S(C)(=O)=O)cc2)nc2ccc(C3CCN(C4CC5CCC(C4)N5C4CCOCC4)CC3)c(F)c21 (stereo not drawn) [Example 275]: 7.05
Cc1cc(C2CCN(C3CCCN(CC4CC4)CC3)CC2)cc2c1nc(-c1ccc(S(C)(=O)=O)cc1)n2C (stereo not drawn) [Example 137]: 7.72
Cn1c(-c2ccc(S(C)(=O)=O)cc2)nc2cc(F)c(C3CCN(C4CCN(C5COC5)CC4)CC3)cc21 [Example 225]: 5.27

Enquiry: Quick one: pIC50 for Cc1cc(C2CCN(C3CC4(C3)CN(C(C)C)C4)CC2)cc2c1nc(-c1ccc(S(C)(=O)=O)cc1)n2C [Example 139] ?
Return: 6.68

Enquiry: State the recorded pIC50 for this entry: COCCN1C2CCC1CC(N1CCC(c3cc(C)c4nc(-c5ccc(S(C)(=O)=O)cc5)n(C)c4c3)CC1)C2 (single isomer, unassigned) [Example 163]
Return: 6.22

Enquiry: If you can, please state the reported pIC50 value of Cn1c(-c2ccc(S(C)(=O)=O)cc2)nc2cc(C3CCN(C4CCN(C5CCOCC5)CC4)CC3)cc(F)c21 [Example 207] .
Return: 6.96

Enquiry: Record request: pIC50 value, item COc1ccc(-c2nc3c(C)cc(C4CCN(C5CC6CCC(C5)N6C5COC5)CC4)cc3n2C)cc1OC (single isomer, unassigned) [Example 165]
Return: 5.89

Enquiry: Look up pIC50: Cc1cc(-c2ccc(N3CCN(CC(C)C)CC3)cc2)cc2c1nc(-c1ccc(S(C)(=O)=O)cc1)n2C [Example 170]
Return: 5.36

Enquiry: Param item = Cn1c(-c2ccc(S(C)(=O)=O)cc2)nc2cc(C3CCN(C4CC5CCC(C4)N5C4CCC4)CC3)cc(F)c21 (single isomer, unassigned) [Example 215] ; retrieve measured pIC50.
Return: 7.15

Enquiry: Quick one: pIC50 of Cn1c(-c2ccc(S(C)(=O)=O)cc2)nc2cc(C3CCN(C4CC5CCC(C4)N5C4CCOCC4)CC3)c(F)cc21 (single isomer, unassigned) [Example 256] ?
Return: 6.49

----------
target: human TLR7 (Homo sapiens, UniProt Q9NYK1); assay: TLR7 inhibition reporter assay (HEK-Blue cells, secreted embryonic alkaline phosphatase reporter); conditions: HEK-Blue cells overexpressing human TLR7, stimulated with gardiquimod 7.5 μM; read-out: TLR 7 IC50
Sequence (Q9NYK1 27-1049): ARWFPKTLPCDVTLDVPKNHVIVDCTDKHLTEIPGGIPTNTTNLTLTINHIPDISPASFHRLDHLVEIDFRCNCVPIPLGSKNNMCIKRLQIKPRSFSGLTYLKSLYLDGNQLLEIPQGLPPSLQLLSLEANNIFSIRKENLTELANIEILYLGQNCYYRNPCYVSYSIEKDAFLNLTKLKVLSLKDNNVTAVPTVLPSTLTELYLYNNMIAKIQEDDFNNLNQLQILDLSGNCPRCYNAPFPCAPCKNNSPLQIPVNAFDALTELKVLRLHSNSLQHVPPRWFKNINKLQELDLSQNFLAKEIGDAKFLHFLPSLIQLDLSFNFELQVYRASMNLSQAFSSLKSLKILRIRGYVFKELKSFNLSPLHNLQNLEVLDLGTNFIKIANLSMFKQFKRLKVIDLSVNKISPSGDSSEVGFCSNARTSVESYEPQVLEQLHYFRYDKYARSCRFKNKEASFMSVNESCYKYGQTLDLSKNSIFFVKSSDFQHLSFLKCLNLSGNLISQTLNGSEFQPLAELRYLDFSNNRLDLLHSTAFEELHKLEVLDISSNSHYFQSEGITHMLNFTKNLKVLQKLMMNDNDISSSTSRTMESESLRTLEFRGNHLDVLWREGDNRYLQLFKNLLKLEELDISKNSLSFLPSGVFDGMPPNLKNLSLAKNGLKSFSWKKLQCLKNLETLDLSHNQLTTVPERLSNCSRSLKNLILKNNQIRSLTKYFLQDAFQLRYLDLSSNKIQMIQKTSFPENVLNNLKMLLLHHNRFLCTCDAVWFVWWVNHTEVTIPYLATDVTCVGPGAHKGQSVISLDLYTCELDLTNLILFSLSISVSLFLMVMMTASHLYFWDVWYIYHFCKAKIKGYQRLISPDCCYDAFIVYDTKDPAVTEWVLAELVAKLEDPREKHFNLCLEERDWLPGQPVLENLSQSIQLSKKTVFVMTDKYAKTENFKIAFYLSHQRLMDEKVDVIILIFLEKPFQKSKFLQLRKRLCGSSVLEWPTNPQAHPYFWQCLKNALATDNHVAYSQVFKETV
measure: pIC50
In plain terms, pIC50 is the concentration in mol/L turned into minus its base-10 logarithm.

Would you please look over these solved cases?
Cn1c(-c2ccc(S(C)(=O)=O)cc2)nc2c(F)cc(C3CCN(C4CC5CCC(C4)N5C4CCC4)CC3)cc21 (single isomer, unassigned) [Example 292]: 4.66
Cc1ccc(CN2CCC(c3cc(C)c4nc(-c5ccc(S(C)(=O)=O)cc5)n(C)c4c3)CC2)cn1: 5.64

Consider the additional compound presented here.
Enquiry: May I ask what pIC50 has been recorded for COc1ccc(-c2nc3c(C)cc(C4CCN(C5CC6CCC(C5)N6CC(C)C)CC4)cc3n2C)cc1OC (single isomer, unassigned) [Example 17] ?
Return: 5.19

----------
molecular target: human TLR9 (Homo sapiens); construct: host or cells: HEK-Blue cells (HEK293-derived reporter line); test: TLR9 inhibition reporter assay (HEK-Blue cells, secreted embryonic alkaline phosphatase reporter); type: cell-based; conditions: HEK-Blue cells overexpressing human TLR9, stimulated with ODN2006 5 nM; read-out: TLR 9 IC50
Listing: pIC50 of selected compounds
# log scale: pIC50 equals minus log10 of the concentration in mol/L

Some compounds with known pIC50 results, for comparison:
CC(C)N1C2CCC1CC(N1CCC(c3cc(F)c4c(c3)nc(-c3ccc(S(C)(=O)=O)cc3)n4C)CC1)C2 (single isomer, unassigned) [Example 92]: 6.98
Cn1c(-c2ccc(S(C)(=O)=O)cc2)nc2ccc(C3CCN(C4CCCN(C5COC5)CC4)CC3)c(F)c21 (stereo not drawn) [Example 315]: 6.83

Next, consider the following compound.
Enquiry: Any idea what pIC50 came out for Cn1c(-c2ccc(S(C)(=O)=O)cc2)nc2c(F)cc(C3CCN(C4CC5CCC(C4)N5CC4CC4)CC3)cc21 (single isomer, unassigned) [Example 282] on human TLR9 (Homo sapiens)?
Return: 6.97

Data origin: patent US12492188B2
